Test system: Sprague-Dawley rats
Test: Effect on hyperlipemia in rats fed high-cholesterol diet (Experimental Example 6)
Assay type: in vivo, rat
Conditions: rats on 1% cholesterol diet, 6 weeks
measure-name: Reduction of atherogenic index as compared to the control group (%)
Value expressed in %; do not type the unit.

Problem: Endpoint output: Reduction of atherogenic index as compared to the control group of CC[C@H](C)C(=O)O[C@H]1C[C@@H](C)C=C2C=C[C@H](C)[C@H](CC[C@@H]3C[C@@H](O)CC(=O)O3)[C@H]21 [Lovastatin, reference compound] . Value?
Solution: 21.58

Problem: Form field: reported Reduction of atherogenic index as compared to the control group of CC(C)CC(NC(=O)CCc1ccc(O)c(O)c1)C(=O)O (stereo not shown)
Solution: 51.06

Problem: What Reduction of atherogenic index as compared to the control group value was documented for this compound, COC(=O)C(CO)NC(=O)CCc1ccc(O)c(O)c1 (stereo not shown) ?
Solution: 57.75

Problem: Query (compound): O=C(O)CC(NC(=O)CCc1ccc(O)c(O)c1)C(=O)O (stereo not shown) ; field requested: Reduction of atherogenic index as compared to the control group
Solution: 40.43
